protocol description: NCI Yeast Anticancer Drug Screen. Data for the bub3 strain (AID 167)
cond: S. cerevisiae bub3 mutant strain, at 50.0 µM, active compounds read high
About 79,000 compounds went through this panel and 15% of them were active in at least one assay; those are over-represented in the sample as a whole.
Listed compounds paired with reported growth inhibition
Give your result in % as a bare value.

[
  {
    "compound": "O=c1nc2n(cc1F)C1OC(CCl)C(O)C1O2 (stereo unspecified)",
    "experimental value": 6.9
  },
  {
    "compound": "N#Cc1c(N2CCCC2)ncn(Cc2ccccc2)c1=S",
    "experimental value": -5.1
  },
  {
    "compound": "Nc1ccccc1SC1CC(=O)N(c2cccc(Cl)c2)C1=O (stereo unspecified)",
    "experimental value": -1.05
  }
]

Requested read-out: growth inhibition. Entry: CC(=O)OC(C)=O
7.55

Again, but for O=C(OCc1ccccc1)C1CC1 (tested in a mixture with another compound)
20.8

Further, for Cc1cc(O)c2c(c1)C(=O)C=CC2=O ?
10.3

What do you get for Nc1ccc2c(c1)CC1CC(=O)NN=C21 (stereo unspecified) ?
-3.15

Input C(=Nc1ccc(N2CCOCC2)cc1)c1ccc2c(c1)OCO2
-21.7

Also need COc1cc2c(cc1OC)C1=NN(c3ccccc3)C(=O)C1CC2 (stereo unspecified) , thanks.
5.55

Try this compound too: N#CSCCOCCOC(=O)NC1CCCCC1
16.2

Now the same for COC(=O)C(=O)C(C(=O)C=C(C)C)C(=O)C(=O)Nc1cc(C(F)(F)F)ccc1Cl (stereo unspecified)
1.15

Would you kindly repeat that for O=C1NC(=S)N/C1=C/c1ccc2c(c1)CCC2 ?
31.8

Now consider CN(C)CCCCC(C#N)(c1ccccc1)c1ccccc1 .
26.5

What do you have for Brc1ccccc2cc(-c3ccccc3)nc1-2 ?
37.2

Entry to check: COc1cc(C(=O)NN(C)C)cc(OC)c1OC
-7.95

Also check CCOC(=O)C(C(O)c1ccc([N+](=O)[O-])cc1)P(=O)(OCC)OCC (stereo unspecified)
-10.9

Please do the same for C#CCn1cnc2c1c(=O)n(C)c(=O)n2C as well.
-11.7

What would you report for S=C1Cc2c(-c3ccc(Br)cc3)cc(-c3ccccc3)nc2-c2ccccc2N1 ?
22.9

Also check Cc1ccccc1NC(=O)CS
29.2

Next entry: CCCCCCCCOC(=O)c1cc([N+](=O)[O-])c(Sc2ncnc3nc[nH]c23)c([N+](=O)[O-])c1
16.1

Now try CC[N+](C)(CC)CCOC(=O)C(c1ccccc1)C(O)C1CCCC1 (stereo unspecified) .
20.9

What would you report for Nc1ccc(S(=O)(=O)n2cccc2)cc1 ?
-9.25

For CC(=O)OCC1CC=CCC1C (stereo unspecified) then?
2.75

Also check COc1ccc(/C=C2/N=C(c3ccccc3)OC2=O)cc1
-1.75
